SUBJECT OF TEST: hFXR (Homo sapiens, UniProt Q96RI1)
Sequence (Q96RI1 whole entry): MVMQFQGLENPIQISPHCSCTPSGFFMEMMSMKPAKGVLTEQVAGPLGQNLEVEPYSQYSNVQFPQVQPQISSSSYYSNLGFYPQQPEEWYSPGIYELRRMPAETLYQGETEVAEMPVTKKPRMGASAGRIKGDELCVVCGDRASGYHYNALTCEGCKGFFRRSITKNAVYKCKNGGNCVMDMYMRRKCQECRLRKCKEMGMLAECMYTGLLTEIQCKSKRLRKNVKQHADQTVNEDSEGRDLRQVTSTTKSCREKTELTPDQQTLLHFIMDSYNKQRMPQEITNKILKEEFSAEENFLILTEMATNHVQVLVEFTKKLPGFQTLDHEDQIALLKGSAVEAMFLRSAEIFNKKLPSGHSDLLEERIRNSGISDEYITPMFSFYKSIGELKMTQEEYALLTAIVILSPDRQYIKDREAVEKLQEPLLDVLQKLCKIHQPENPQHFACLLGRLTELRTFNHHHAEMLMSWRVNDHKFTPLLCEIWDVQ
Sequence (P19793 whole entry partner): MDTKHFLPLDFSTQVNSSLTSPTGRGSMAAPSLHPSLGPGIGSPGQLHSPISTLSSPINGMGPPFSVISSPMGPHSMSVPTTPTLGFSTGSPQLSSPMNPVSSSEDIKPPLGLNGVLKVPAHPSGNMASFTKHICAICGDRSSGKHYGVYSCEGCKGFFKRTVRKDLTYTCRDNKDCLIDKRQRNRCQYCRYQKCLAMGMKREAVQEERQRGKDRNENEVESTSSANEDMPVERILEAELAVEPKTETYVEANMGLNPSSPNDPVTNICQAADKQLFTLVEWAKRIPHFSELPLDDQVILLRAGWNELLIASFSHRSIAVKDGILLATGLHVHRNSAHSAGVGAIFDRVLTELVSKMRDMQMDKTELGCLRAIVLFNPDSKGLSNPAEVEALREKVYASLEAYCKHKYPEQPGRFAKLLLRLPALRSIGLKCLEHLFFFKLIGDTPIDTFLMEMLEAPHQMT
EXPERIMENT SUMMARY: In Vitro FXR Assay (TK): hFXR/hRXR TK-ECRE-luc reporter in transfected CV-1 cells
EXPERIMENTAL CONDITIONS: 18 hrs incubation, luminescence, compounds with maximum efficacy <25% of the Fexarmine control classified as '+'
pEC50: −log10 of the molar value.
QUANTITY NAME: pEC50

Requested field: pEC50. Item: COc1ccc([C@H]2CC[C@H](CN(c3cccc(-c4cnc(CCO)s4)c3)C(=O)[C@H]3CC[C@H](O)CC3)CC2)cc1C
6.00 to 6.60

Quick check: pEC50 of COc1ccc([C@H]2CC[C@H](CN(c3cccc(-c4cnc(C5CCCCC5)s4)c3)C(=O)[C@H]3CC[C@H](O)CC3)CC2)cc1C ?
6.00 to 6.60

// pEC50 lookup, key: COc1ccc([C@H]2CC[C@H](CN(c3cccc(-c4cnc(N5CCOCC5)s4)c3)C(=O)[C@H]3CC[C@H](O)CC3)CC2)cc1C
≥ 6.60

Please give the measured pEC50 for this molecule: COc1ncc(-c2cccc(N(C[C@H]3CC[C@H](c4ccc5c(c4)OCO5)CC3)C(=O)[C@H]3CC[C@H](O)CC3)c2)s1
≥ 6.60

Can you share its pEC50? I mean this molecule: COc1ccc([C@H]2CC[C@H](CN(c3cccc(-c4cncs4)c3)C(=O)[C@H]3CC[C@H](O)CC3)CC2)cc1C
6.00 to 6.60

Look up pEC50 for this molecule: COc1ccc([C@H]2CC[C@H](CN(c3cccc(-c4cnc(S(C)(=O)=O)s4)c3)C(=O)[C@H]3CC[C@H](O)CC3)CC2)cc1C
6.00 to 6.60

Quick one: pEC50 of COc1ccc([C@H]2CC[C@H](CN(c3cc(-c4cnc(C5CC5)s4)ccn3)C(=O)[C@H]3CC[C@H](O)CC3)CC2)cc1C#N ?
≥ 6.60

For the molecule shown here, CN(C)c1ccc(C23CCC(CN(c4cccc(-c5cnc(C6CC6)s5)c4)C(=O)[C@H]4CC[C@H](O)CC4)(CC2)CC3)cn1 , give the reported pEC50.
≥ 6.60

// lookup pEC50 for COc1ncc(-c2cccc(N(C[C@H]3CC[C@H](c4ccc(OC)c(C)c4)CC3)C(=O)C3CCOCC3)c2)s1
≥ 6.60

What pEC50 value was documented for this molecule, COc1ccc([C@H]2CC[C@H](CN(c3cccc(-c4ncc(C)s4)c3)C(=O)[C@H]3CC[C@H](O)CC3)CC2)cc1C ?
≤ 6.00

Entry COc1ccc([C@H]2CC[C@H](CN(c3cccc(-c4cnc(C(=O)O)s4)c3)C(=O)[C@H]3CC[C@H](O)CC3)CC2)cc1C has what pEC50?
≤ 6.00

Need pEC50 of COc1ccc([C@H]2CC[C@H](CN(c3cccc(-c4cnc(C(C)(C)C)s4)c3)C(=O)[C@H]3CC[C@H](O)CC3)CC2)cc1C , thanks.
≥ 6.60

Form field: reported pEC50 of COc1ccc([C@H]2CC[C@H](CN(c3cccc(-c4cnc(C5CC5)s4)c3)C(=O)[C@H]3CC[C@H](N(C)C)CC3)CC2)cc1C
≤ 6.00

---

SUBJECT OF TEST: hFXR (Homo sapiens, UniProt Q96RI1)
EXPERIMENT SUMMARY: In Vitro FXR Assay (TK): hFXR/hRXR TK-ECRE-luc reporter in transfected CV-1 cells
EXPERIMENTAL CONDITIONS: 18 hrs incubation, luminescence, compounds with maximum efficacy <25% of the Fexarmine control classified as '+'
pEC50: −log10 of the molar value.
Quick list: pEC50 per entry.

Below are worked cases with known answers.
MOLECULE | pEC50
COc1ccc([C@H]2CC[C@H](CN(c3cccc(CCc4nccs4)c3)C(=O)[C@H]3CC[C@H](O)CC3)CC2)cc1C [Compound 6.07] | ≥ 6.60
C#Cc1cc([C@H]2CC[C@H](CN(c3cccc(-c4cnc(OC)s4)c3)C(=O)[C@H]3CC[C@H](O)CC3)CC2)ccc1OC [Compound 9.05] | ≥ 6.60
COc1ccc([C@H]2CC[C@H](CN(c3cccc(-c4cnc(C(C)C)s4)c3)C(=O)[C@H]3CC[C@H](O)CC3)CC2)cc1C [Compound 7.06] | ≥ 6.60
COc1ncc(-c2cccc(N(C[C@H]3CC[C@H](c4ccc5scnc5c4)CC3)C(=O)[C@H]3CC[C@H](O)CC3)c2)s1 [Compound 9.09] | ≥ 6.60
COc1ccc([C@H]2CC[C@H](CN(c3cccc(-c4cnc(C5CC5)s4)c3)C(=O)[C@H]3CC[C@H](O)CC3)CC2)cc1C#N [Compound 7.29] | ≥ 6.60

Entry O=C([C@H]1CC[C@H](O)CC1)N(C[C@H]1CC[C@H](c2ccc3c(c2)OCO3)CC1)c1cccc(-c2cnc(C3CC3)s2)c1 [Compound 9.25] has what pEC50?
≥ 6.60

Which pEC50 is listed for COc1ccc([C@H]2CC[C@H](CN(c3cccc(-c4cnc(C(F)(F)F)s4)c3)C(=O)[C@H]3CC[C@H](O)CC3)CC2)cc1C [Compound 7.23] ?
≥ 6.60

So what does the record say about pEC50 for COc1ncc(-c2cccc(N(C[C@H]3CC[C@@H](c4ccc(OC)c(C)c4)CC3)C(=O)[C@H]3CC[C@H](O)CC3)c2)s1 [Compound 2] ?
≤ 6.00

For the molecule shown here, COc1ncc(-c2cccc(N(C[C@H]3CC[C@H](c4ccc(OC)c(C)n4)CC3)C(=O)[C@H]3CC[C@H](O)CC3)c2)s1 [Compound 9.02] , give the reported pEC50.
≥ 6.60

What does the record list as pEC50 for COc1ccc([C@H]2CC[C@H](CN(c3cccc(-c4nc(C)cs4)c3)C(=O)[C@H]3CC[C@H](O)CC3)CC2)cc1C [Compound 7.01] ?
≤ 6.00

Using the record for COc1ccc([C@H]2CC[C@H](CN(c3cccc(-c4cnc(C)s4)c3)C(=O)[C@H]3CC[C@H](O)CC3)CC2)cc1C [Compound 6.03] , report its pEC50.
≥ 6.60

Return reported pEC50; argument: COc1ncc(-c2cccc(N(C[C@@H]3CC[C@@H](c4ccc(OC)c(C)c4)CC3C)C(=O)[C@H]3CC[C@H](O)CC3)c2)s1 (stereo partly shown) [Compound 9.11]
≥ 6.60
